Listing: Percent inhibition (passive Arthus reaction) of selected compounds
- Tested on: passive Arthus reaction
- Assay Text: Anti-inflammatory activity test, carried out as Example of Test 2 (Example of Test 3)
- Format: in vivo, male guinea pigs of the Hartley strain
- Assay Conditions: Table 22; 0.01 mg/kg, i.v.
I only need the number, in %, no unit after it.

Sample answers from the record:
Compound | Uom | Quantitative Result
COc1ccc(OC2OC(CO)C(OC3OC(CO)C(OS(=O)(=O)[O-])C(O)C3O)C(OC3OC(C)C(O)C(O)C3O)C2O)cc1.[Na+] (stereo not drawn) [Compound 144] | % | -15.2
CCCOC1OC(CO)C(OC2OC(C)C(O)C(O)C2O)C(OC2OC(CO)C(OS(=O)(=O)[O-])C(OS(=O)(=O)[O-])C2OS(=O)(=O)[O-])C1NC(C)=O.[Na+].[Na+].[Na+] (stereo not drawn) [Compound 176] | % | 57.5

Now look at this one.
The compound listed as COc1ccc(OC2OC(CO)C(OC3OC(CO)C(O)C(OS(=O)(=O)[O-])C3O)C(OC3OC(C)C(O)C(O)C3O)C2O)cc1.[Na+] (stereo not drawn) [Compound 143] has a reported Percent inhibition (passive Arthus reaction) of 84.1
